Form field: MIC (one value per entry).
- Test system: Escherichia coli
- experiment summary: Antimicrobial activity against beta-lactamase CTX-M-15-producing fluoroquinolone-resistant Escherichia coli FMV5825 expressing qnrB2 and aac(6')-Ib-cr and harboring gyrA Ser83Ile and Asp87Asn mutant gene and ParC Ser80Ile and Glu84Val mutant gene obtained from dog with urinary tract infection by broth microdilution method
- Type: functional
- condition: FMV5825, Urine

compound	MIC
Cc1nnc(SCC2=C(C(=O)O)N3C(=O)[C@@H](NC(=O)Cn4cnnn4)[C@H]3SC2)s1 [CEFAZOLIN]	> 16 µg/mL
NCC[C@H](O)C(=O)N[C@@H]1C[C@H](N)[C@@H](O[C@H]2O[C@H](CN)[C@@H](O)[C@H](O)[C@H]2O)[C@H](O)[C@H]1O[C@H]1O[C@H](CO)[C@@H](O)[C@H](N)[C@H]1O [AMIKACIN]	16 µg/mL
C[C@@H](O)[C@H]1C(=O)N2C(C(=O)O)=C(S[C@@H]3CN[C@H](C(=O)N(C)C)C3)[C@H](C)[C@H]12 [MEROPENEM]	≤ 2 µg/mL

Origin of measurements: ChEMBL document CHEMBL1275581
